A collection of molecules and their measured IC50
Test system: SARS-CoV-2 Beta (B.1.351)
Assay: microbe, parasite or virus in culture
Format: cell-based
Settings: Severe acute respiratory syndrome coronavirus 2, Vero C1008, 72 h

[
  {
    "chemicalStructure": "O=C(O)c1ccc(OCCCCn2c(=O)ccn(Cc3cccc4ccccc34)c2=O)cc1",
    "testSystem": "SARS-CoV-2 Beta (B.1.351)",
    "measureUnit": "µM",
    "boundOperator": "=",
    "IC50": 32.7
  },
  {
    "chemicalStructure": "O=C(O)c1ccc(OCCCCCn2c(=O)ccn(CCCCCOc3ccccc3Br)c2=O)cc1",
    "testSystem": "SARS-CoV-2 Beta (B.1.351)",
    "measureUnit": "µM",
    "boundOperator": "=",
    "IC50": 27.3
  },
  {
    "chemicalStructure": "O=C(O)c1ccc(OCCCCn2c(=O)ccn(Cc3ccc4ccccc4c3)c2=O)cc1",
    "testSystem": "SARS-CoV-2 Beta (B.1.351)",
    "measureUnit": "µM",
    "boundOperator": "=",
    "IC50": 15.5
  },
  {
    "chemicalStructure": "O=C(O)c1ccc(OCCCCCn2c(=O)ccn(CCCCCOc3ccc(F)cc3)c2=O)cc1",
    "testSystem": "SARS-CoV-2 Beta (B.1.351)",
    "measureUnit": "µM",
    "boundOperator": "=",
    "IC50": 34.1
  },
  {
    "chemicalStructure": "Cc1cc(C)cc(OCCCCCn2ccc(=O)n(CCCCCOc3ccc(C(=O)O)cc3)c2=O)c1",
    "testSystem": "SARS-CoV-2 Beta (B.1.351)",
    "measureUnit": "µM",
    "boundOperator": "=",
    "IC50": 29.1
  },
  {
    "chemicalStructure": "O=C(O)c1ccc(OCCCCn2c(=O)ccn(CCCOc3ccc(Br)cc3)c2=O)cc1",
    "testSystem": "SARS-CoV-2 Beta (B.1.351)",
    "measureUnit": "µM",
    "boundOperator": "=",
    "IC50": 50
  },
  {
    "chemicalStructure": "O=c1ccn(Cc2c3ccccc3cc3ccccc23)c(=O)n1CCCCCCOc1ccc(Br)cc1",
    "testSystem": "SARS-CoV-2 Beta (B.1.351)",
    "measureUnit": "µM",
    "boundOperator": ">",
    "IC50": 50
  },
  {
    "chemicalStructure": "O=C(O)c1ccc(OCCCCn2c(=O)ccn(Cc3ccc(Br)c4ccccc34)c2=O)cc1",
    "testSystem": "SARS-CoV-2 Beta (B.1.351)",
    "measureUnit": "µM",
    "boundOperator": ">",
    "IC50": 50
  },
  {
    "chemicalStructure": "O=C(O)c1ccc(OCCCCCn2c(=O)ccn(Cc3c4ccccc4cc4ccccc34)c2=O)cc1",
    "testSystem": "SARS-CoV-2 Beta (B.1.351)",
    "measureUnit": "µM",
    "boundOperator": "=",
    "IC50": 23.8
  },
  {
    "chemicalStructure": "O=C(O)c1ccc(Cn2c(=O)ccn(CCCCCOc3ccc(Br)cc3)c2=O)cc1",
    "testSystem": "SARS-CoV-2 Beta (B.1.351)",
    "measureUnit": "µM",
    "boundOperator": "=",
    "IC50": 33.1
  },
  {
    "chemicalStructure": "O=C(O)c1ccc(OCCCn2c(=O)ccn(CCCCCCCCCCCCOc3ccc(Br)cc3)c2=O)cc1",
    "testSystem": "SARS-CoV-2 Beta (B.1.351)",
    "measureUnit": "µM",
    "boundOperator": ">",
    "IC50": 50
  }
]
